Item-by-item account of IC50
# Assay Procedure: Inhibition of human PKA
Kindly provide the numeric value in µM only, without the unit symbol.

// query What value of IC50 has been reported for the following molecule? CNc1nccc(-c2nc(C3CCNCC3)[nH]c2-c2cccc(C(F)(F)F)c2)n1
// result 260

// query What value of IC50 has been reported for the following molecule? CC1CCC(c2nc(-c3ccc(F)cc3)c(-c3ccncc3)[nH]2)CC1 (configuration not stated)
// result 2

----------
# Measurement Target: Casein kinase I isoform delta (Homo sapiens, UniProt P48730)
# Sequence (P48730 whole entry, canonical isoform): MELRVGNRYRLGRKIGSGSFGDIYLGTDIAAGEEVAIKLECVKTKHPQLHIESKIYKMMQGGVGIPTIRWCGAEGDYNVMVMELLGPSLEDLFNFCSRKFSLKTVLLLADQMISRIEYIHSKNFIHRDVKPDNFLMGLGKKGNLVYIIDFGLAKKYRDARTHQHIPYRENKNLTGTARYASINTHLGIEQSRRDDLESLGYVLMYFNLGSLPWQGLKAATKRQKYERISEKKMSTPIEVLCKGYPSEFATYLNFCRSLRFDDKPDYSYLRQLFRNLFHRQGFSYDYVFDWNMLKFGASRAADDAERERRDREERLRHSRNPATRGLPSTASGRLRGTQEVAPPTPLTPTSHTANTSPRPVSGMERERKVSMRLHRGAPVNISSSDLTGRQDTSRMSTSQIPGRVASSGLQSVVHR
# Assay Procedure: Inhibition of human CKIdelta
Parameter: pIC50
// pIC50 is dimensionless: -log10 of concentration (M)

CNc1nccc(-c2nc(C3CCNCC3)[nH]c2-c2cccc(C(F)(F)F)c2)n1
5.85

// query Query pIC50 on Casein kinase I isoform delta (Homo sapiens, UniProt P48730) for CC1CCC(c2nc(-c3ccc(F)cc3)c(-c3ccncc3)[nH]2)CC1 (configuration not stated)
// result 6.40
